Values were extracted from paper PMC4552634.

- Test system: P. falciparum stage V gametocytes
- Parameters: BacTiter-Glo ATP luminescence viability of purified stage V gametocytes in 384-well plates, per cent inhibition versus DMSO
- SETUP_CONDITIONS: 48 h, 5 µM; inhibitor
Among all 13,000 compounds or so, about 3,200 (25%) showed an effect of 50% or more. The list shows a part of the results.
Please use TRUE whenever % Inhibition is not below 30%, and FALSE whenever it is.

Could you please find out whether CC(C)C(C(=O)Nc1ccc(S(=O)(=O)N(C)C)cc1)c1ccc(Cl)cc1 (stereo not shown) has % Inhibition that meets 30% or exceeds it?
TRUE

Could you please find out whether CC(=O)c1ccccc1C(=O)N1CCOc2ccc(C(O)C(c3ccccc3)c3ccccc3)cc2C1 (stereo not shown) has % Inhibition that meets 30% or exceeds it?
FALSE

Could you please find out whether COc1cc(C(C)C)nc2ccc(NC(=O)c3ccc(C(=O)Nc4ccc5nc(C(C)C)cc(OC)c5c4)cc3)cc12 has % Inhibition that meets 30% or exceeds it?
TRUE

Could you please find out whether Nc1nc(N)c(-c2ccccc2)c(=O)[nH]1 has % Inhibition that meets 30% or exceeds it?
FALSE

Could you please find out whether O=C(N[C@@H](CC1CCCCC1)C(=O)NCCN1CCCC1)c1ccc(O)c(-c2ccc(Cl)c(Cl)c2)c1 has % Inhibition that meets 30% or exceeds it?
FALSE

Could you please find out whether O=C(O)C(F)(F)F.c1cc(-c2ccc(CNC3CCOCC3)cc2)cc(-c2nc3ccccc3[nH]2)c1 has % Inhibition that meets 30% or exceeds it?
TRUE

Could you please find out whether COc1cc(Nc2nccc(N3CCC(NC(=O)C(C)c4ccc(Cl)cc4)C3)n2)cc(OC)c1OC (stereo not shown) has % Inhibition that meets 30% or exceeds it?
TRUE

Could you please find out whether COc1cc(NC(=O)C(c2ccc(Cl)cc2)C(C)C)cc(OC)c1OC (stereo not shown) has % Inhibition that meets 30% or exceeds it?
TRUE

Could you please find out whether CN(C)c1cccc(NC(=O)N[C@H]2N=C(c3ccccc3)c3ccccc3N(CC(=O)N3CCCC3)C2=O)c1 has % Inhibition that meets 30% or exceeds it?
TRUE

Could you please find out whether CCCC1(NC[C@@H](O)[C@H](Cc2ccccc2)NC(=O)c2cc(NCC)cc(N3CCCCS3(=O)=O)c2)CCC1 has % Inhibition that meets 30% or exceeds it?
FALSE

Could you please find out whether c1ccn2c(-c3ncnc(NCc4ccc5c(c4)CCO5)n3)cnc2c1 has % Inhibition that meets 30% or exceeds it?
FALSE

Could you please find out whether Cc1cc(N2CCCC2)nc(Nc2ccc(NC(=O)c3ccc4c(c3)OCO4)cc2)n1 has % Inhibition that meets 30% or exceeds it?
FALSE

Could you please find out whether O=C(N[C@H](Cc1ccc(Cl)cc1)C(=O)N1CCN(c2ccnc3cc(Cl)ccc23)CC1)[C@H]1Cc2ccccc2CN1 has % Inhibition that meets 30% or exceeds it?
FALSE

Could you please find out whether Nc1nc(N)c2c(n1)CCc1cc(Br)ccc1-2 has % Inhibition that meets 30% or exceeds it?
FALSE

Could you please find out whether O=C(Nc1ccc(Cl)cc1)Nc1cccc(-c2ccc(-c3nc4ccccc4[nH]3)cc2)c1 has % Inhibition that meets 30% or exceeds it?
FALSE

Could you please find out whether COc1cc(Nc2nccc(N3CCC(NC(=O)c4cccc(C#N)c4)C3)n2)cc(OC)c1OC (stereo not shown) has % Inhibition that meets 30% or exceeds it?
FALSE
